Assayed System: mTOR (Homo sapiens, UniProt P42345+P62942)
Construct: SinoBiological (FKBP12) PV4753 (mTOR); 10268-H08E (FKBP12)
Sequence (P42345 1360-2549 limits assumed): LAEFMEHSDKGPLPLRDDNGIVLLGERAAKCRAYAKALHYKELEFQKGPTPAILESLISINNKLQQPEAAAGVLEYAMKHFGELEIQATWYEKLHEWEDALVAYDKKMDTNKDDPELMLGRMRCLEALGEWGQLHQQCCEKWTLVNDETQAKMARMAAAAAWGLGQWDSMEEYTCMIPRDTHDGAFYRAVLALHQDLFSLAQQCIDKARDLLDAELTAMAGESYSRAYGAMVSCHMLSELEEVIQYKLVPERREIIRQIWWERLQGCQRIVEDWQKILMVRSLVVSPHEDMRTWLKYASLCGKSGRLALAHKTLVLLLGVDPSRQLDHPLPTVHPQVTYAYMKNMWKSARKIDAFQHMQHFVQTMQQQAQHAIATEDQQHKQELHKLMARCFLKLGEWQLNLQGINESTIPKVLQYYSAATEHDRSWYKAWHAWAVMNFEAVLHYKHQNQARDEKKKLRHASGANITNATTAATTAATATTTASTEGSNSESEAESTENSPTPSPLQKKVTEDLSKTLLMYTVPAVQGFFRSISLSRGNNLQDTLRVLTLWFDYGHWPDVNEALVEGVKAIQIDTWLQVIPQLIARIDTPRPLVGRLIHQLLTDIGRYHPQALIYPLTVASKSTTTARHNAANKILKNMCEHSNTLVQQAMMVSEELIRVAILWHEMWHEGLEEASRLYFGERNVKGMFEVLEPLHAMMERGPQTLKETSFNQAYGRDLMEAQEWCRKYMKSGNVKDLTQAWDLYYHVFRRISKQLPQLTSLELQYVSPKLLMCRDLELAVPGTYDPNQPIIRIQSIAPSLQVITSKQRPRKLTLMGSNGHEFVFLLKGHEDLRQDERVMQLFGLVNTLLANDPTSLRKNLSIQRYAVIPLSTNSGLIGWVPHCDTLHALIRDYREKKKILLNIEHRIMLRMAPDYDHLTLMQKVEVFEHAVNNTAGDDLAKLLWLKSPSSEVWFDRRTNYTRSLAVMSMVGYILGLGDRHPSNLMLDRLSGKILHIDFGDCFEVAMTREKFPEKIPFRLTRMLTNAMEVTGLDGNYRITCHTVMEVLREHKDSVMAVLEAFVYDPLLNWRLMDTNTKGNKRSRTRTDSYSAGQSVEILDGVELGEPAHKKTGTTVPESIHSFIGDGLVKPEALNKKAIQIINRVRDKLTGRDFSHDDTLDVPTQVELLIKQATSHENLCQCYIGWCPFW
Sequence (P62942 whole entry): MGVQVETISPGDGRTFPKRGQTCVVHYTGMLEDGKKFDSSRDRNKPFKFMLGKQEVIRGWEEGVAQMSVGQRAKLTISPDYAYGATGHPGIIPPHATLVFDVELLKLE
Measurement Description: mTOR TR-FRET kinase assay (phosphorylation of GFP-4E-BP1)
Test Settings: 10 μM ATP, 0.4 μM GFP-4E-BP1, read-out: IC50 mTOR inhibition
For each record, write down the corresponding IC50.
Answers are plain numbers, in nM.

Here is how some compounds turned out for IC50.
Compound: CO[C@H]1C[C@@H]2CC[C@@H](C)[C@@](O)(O2)C(=O)C(=O)N2CCCC[C@H]2C(=O)O[C@H]([C@H](C)C[C@@H]2CC[C@H](n3cc(COc4ccc(S(N)(=O)=O)cc4)nn3)[C@H](OC)C2)CC(=O)[C@H](C)/C=C(\C)[C@@H](O)[C@@H](OC)C(=O)[C@H](C)C[C@H](C)/C=C/C=C/C=C/1C
Assayed System: mTOR (Homo sapiens, UniProt P42345+P62942)
Readout Number: 35.2
--
Compound: CO[C@H]1C[C@@H]2CC[C@@H](C)[C@@](O)(O2)C(=O)C(=O)N2CCCC[C@H]2C(=O)O[C@H]([C@H](C)C[C@@H]2CC[C@H](n3cc(CO)nn3)[C@H](OC)C2)CC(=O)[C@H](C)/C=C(\C)[C@@H](O)[C@@H](OC)C(=O)[C@H](C)C[C@H](C)/C=C/C=C/C=C/1C
Assayed System: mTOR (Homo sapiens, UniProt P42345+P62942)
Readout Number: 18.4
--
Compound: CO[C@H]1C[C@@H]2CC[C@@H](C)[C@@](O)(O2)C(=O)C(=O)N2CCCC[C@H]2C(=O)O[C@H]([C@H](C)C[C@@H]2CC[C@H](n3cc(-c4ccc(S(N)(=O)=O)cc4)nn3)[C@H](OC)C2)CC(=O)[C@H](C)/C=C(\C)[C@@H](O)[C@@H](OC)C(=O)[C@H](C)C[C@H](C)/C=C/C=C/C=C/1C
Assayed System: mTOR (Homo sapiens, UniProt P42345+P62942)
Readout Number: 29
--
Compound: CO[C@H]1C[C@@H]2CC[C@@H](C)[C@@](O)(O2)C(=O)C(=O)N2CCCC[C@H]2C(=O)O[C@H]([C@H](C)C[C@@H]2CC[C@@H](OCc3cn(-c4ccc(C(=O)O)cc4)nn3)[C@H](OC)C2)CC(=O)[C@H](C)/C=C(\C)[C@@H](O)[C@@H](OC)C(=O)[C@H](C)C[C@H](C)/C=C/C=C/C=C/1C
Assayed System: mTOR (Homo sapiens, UniProt P42345+P62942)
Readout Number: 6600
--
Compound: CO[C@H]1C[C@@H]2CC[C@@H](C)[C@@](O)(O2)C(=O)C(=O)N2CCCC[C@H]2C(=O)O[C@H]([C@H](C)C[C@@H]2CC[C@H](n3cc(-c4cccnc4)nn3)[C@H](OC)C2)CC(=O)[C@H](C)/C=C(\C)[C@@H](O)[C@@H](OC)C(=O)[C@H](C)C[C@H](C)/C=C/C=C/C=C/1C
Assayed System: mTOR (Homo sapiens, UniProt P42345+P62942)
Readout Number: 27.2
--
Compound: CO[C@H]1C[C@@H]2CC[C@@H](C)[C@@](O)(O2)C(=O)C(=O)N2CCCC[C@H]2C(=O)O[C@H]([C@H](C)C[C@@H]2CC[C@@H](OCc3c[nH]nn3)[C@H](OC)C2)CC(=O)[C@H](C)/C=C(\C)[C@@H](O)[C@@H](OC)C(=O)[C@H](C)C[C@H](C)/C=C/C=C/C=C/1C
Assayed System: mTOR (Homo sapiens, UniProt P42345+P62942)
Readout Number: 9140
--
Compound: CO[C@H]1C[C@@H]2CC[C@@H](C)[C@@](O)(O2)C(=O)C(=O)N2CCCC[C@H]2C(=O)O[C@H]([C@H](C)C[C@@H]2CC[C@@H](OCCO)[C@H](OC)C2)CC(=O)[C@H](C)/C=C(\C)[C@@H](O)[C@@H](OC)C(=O)[C@H](C)C[C@H](C)/C=C/C=C/C=C/1C [Compound A15, reference compound]
Assayed System: mTOR (Homo sapiens, UniProt P42345+P62942)
Readout Number: 6.43

In the following, a different compound is considered.
query: Give the value of IC50 reported for the following: CO[C@H]1C[C@@H]2CC[C@@H](C)[C@@](O)(O2)C(=O)C(=O)N2CCCC[C@H]2C(=O)O[C@H]([C@H](C)C[C@@H]2CC[C@H](n3cc(-c4ccc(C(=O)O)cc4)nn3)[C@H](OC)C2)CC(=O)[C@H](C)/C=C(\C)[C@@H](O)[C@@H](OC)C(=O)[C@H](C)C[C@H](C)/C=C/C=C/C=C/1C
result: 446
